system_name: Mrgprb2 (Mus musculus, UniProt Q3KNA1)
Sequence (Q3KNA1 whole entry): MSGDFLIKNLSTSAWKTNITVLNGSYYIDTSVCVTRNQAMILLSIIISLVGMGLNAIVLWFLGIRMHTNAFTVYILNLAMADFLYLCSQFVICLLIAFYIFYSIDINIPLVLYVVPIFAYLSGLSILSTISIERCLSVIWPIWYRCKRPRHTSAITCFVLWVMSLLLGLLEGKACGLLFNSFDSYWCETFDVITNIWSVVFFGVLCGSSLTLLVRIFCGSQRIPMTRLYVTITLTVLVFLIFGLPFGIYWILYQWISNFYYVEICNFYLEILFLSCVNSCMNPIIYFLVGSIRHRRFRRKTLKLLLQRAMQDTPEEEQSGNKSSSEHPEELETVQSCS
experiment: FLIPR calcium imaging, HEK293 expressing Mrgprb2
Assay type: cell-based
Positions of bridges follow the written chain, without caps; N, C: chain ends. No end group written: not given here.
metric: pEC50
One number for each entry, as −log10 of the molar value.

1. KKINNPVSCLRKGGRCWNRCIGNTRQIGSCGVPFLKCCKRK (disulfide 9-37, 16-30, 20-38) [Defb3]
4.94

Task item: Reported pEC50 for FLPKTLRKFFCRIRGGRCAVLNCLGKEEQIGRCSNSGRKCCRKKK (disulfide 11-40, 18-33, 23-41) [Defb14] : what is it?
Reply: 5.77

Source of measurements: paper PMC9549968
